tested on: Plasmodium berghei; experiment: Screen against P. berghei liver stage (PbLuc), transformed with Luciferase, at 10uM; format: functional, HepG2; details: tested at 10 uM
About 8,600 (12%) of roughly 69,000 compounds showed an effect of 50% or more. The list comes from a sample in which strong results are over-represented; it also holds close analogues and randomly drawn compounds.
EXPERIMENTAL READOUT: INHIBITION (%)
Give a bare numeral; the unit % is implied.

The reported value for CNc1ncc(-c2ccc(NC(=O)[C@@H]3CCCCN3)cc2)cn1 in terms of INHIBITION is 4.08

Documented INHIBITION of Cc1nccn1C1CCCN(C(=O)COCC2CC2)C1 (stereo unspecified) : 22.9

The reported INHIBITION of the molecule O=S1(=O)NC(C2CCN(Cc3ccncc3)CC2)Nc2ccccc21 (stereo unspecified) was 1.5

The molecule listed as Cc1nn(C)c(C)c1CNCc1ccc(N2CCOCC2)nc1 has a reported INHIBITION of 32.8

Record Cc1nc(N2CCCC2)nc2c1CCN(C(=O)NC1CCCC1)CC2 . Reported INHIBITION: -6.23

Sure, the documented INHIBITION for O=C(NCc1ccc(Cl)cc1)C1=NOC2(CCNC2)C1 (stereo unspecified) is 1.71

###

tested on: Plasmodium berghei; assay: Screen against P. berghei liver stage (PbLuc), transformed with Luciferase, at 10uM; type: functional, HepG2; settings: tested at 10 uM
The whole screen tested about 69,000 compounds, of which about 8,600 (12%) showed an effect of 50% or more. The sample holds strong results, similar compounds and a random draw of the others, so the mix is not that of the screen.
Each record gets a class by INHIBITION: low bracket: < 40%; middle bracket: ≥ 40% and < 50%; high bracket: ≥ 50%

Exam item: Each compound maps to one class by INHIBITION. Which class for CC(NC(=O)NCCCn1cccn1)c1ccc2c(c1)OCCCO2 (stereo unspecified) ?
Marked response: low bracket

Exam item: Class label required: Cc1nc(-c2ccc(C(=O)O)cc2)cc(C2CCCN(C(C)C)C2)n1 (stereo unspecified)
Marked response: middle bracket

Exam item: Kindly identify the class of Cc1nn(C)c(C)c1OCC(=O)NCC(O)Cc1ccccc1 (stereo unspecified) .
Marked response: high bracket

Exam item: Sort into band: Cc1nn(C)c(C)c1OCC(=O)NCc1cccc(CO)c1
Marked response: low bracket

Exam item: Place this compound in its band: CC(C)[C@H]1COC(=O)N1CC(=O)N1CCCN(C(=O)c2ccoc2)CC1
Marked response: high bracket

Exam item: Assign a bin to CCC(=O)N1CCc2nc(N3CCOCC3)nc(N(C)C)c2CC1
Marked response: middle bracket

Exam item: Band of Cc1nn(C)c(C)c1OCC(=O)NCc1cccc(C(=O)O)c1 ?
Marked response: low bracket

Exam item: assign Cc1nn(C)c(C)c1OCC(=O)NCC(O)c1ccsc1 (stereo unspecified) to the correct category.
Marked response: low bracket

Exam item: Which category fits this record: Cc1nc(CN2CCO[C@@H]3CN(Cc4cccs4)C[C@@H]3C2)cs1
Marked response: low bracket

Exam item: In plain terms, what class is Cc1nn(C)c(C)c1OCC(=O)NCC(O)c1ccccc1F (stereo unspecified) ?
Marked response: high bracket

###

test system: Plasmodium berghei; assay: Screen against P. berghei liver stage (PbLuc), transformed with Luciferase, at 10uM; format: functional, HepG2; settings: tested at 10 uM
In all, about 69,000 compounds went through this assay and about 8,600 (12%) showed an effect of 50% or more. Shown is part of a subset that was picked to be rich in strong results.
Hi there, I'd appreciate the recorded INHIBITION for every entry that follows.

Briefly, INHIBITION measured for CCn1ncc2c(C(F)F)cc(-c3ccn(C)n3)nc21 : 8.05%

Recorded INHIBITION (compound CCc1csc(C2CCCN(C(=O)c3cc(Cl)c[nH]3)C2)n1 (configuration not stated) ): 11.9%

response.value for CSCc1cc(F)ccc1CNC(=O)N1CCOCC1 (field: INHIBITION) = 13.1%

The recorded INHIBITION for entry Cn1nccc1C(=O)N1Cc2cc(Cl)ccc2OC2(CCOCC2)C1 equals -0.902%

// INHIBITION lookup, compound = COc1ccccc1CNC(=O)N1CCCC(CO)C1 (configuration not stated) , result: -10.7%

response.value for O=C(CCn1cnc2cc(F)c(F)cc21)N1CCN2CCCCC2C1 (configuration not stated) (field: INHIBITION) = 23.4%

Lab note: CN(C)c1cc(C2CCCN(S(=O)(=O)c3cn(C)cn3)C2)ccn1 (configuration not stated) gave INHIBITION of -44.2%

Recorded result, Cc1cc(C2CCCN(S(=O)(=O)c3cn[nH]c3)C2)ccn1 (configuration not stated) , INHIBITION: 19.6%

# INHIBITION (compound: CN(C)c1cc(C2CCCN(S(=O)(=O)c3cn[nH]c3)C2)ccn1 (configuration not stated) ) is 85.7%

Per the records, this compound ( CN(C)C(=O)COCC1CN(Cc2cccs2)Cc2ncn(C)c21 (configuration not stated) ) has INHIBITION equal to -47.8%

Noted for CNc1cc(C2CCCN(S(=O)(=O)c3cn[nH]c3)C2)ccn1 (configuration not stated) : its INHIBITION reads 28%

In plain terms, CSCc1cc(F)ccc1CNC(=O)N1CCC(CO)CC1 has a documented INHIBITION of 56.6%

###

tested on: Plasmodium berghei; assay: Screen against P. berghei liver stage (PbLuc), transformed with Luciferase, at 10uM; format: functional, HepG2; conditions: tested at 10 uM
The campaign covered roughly 69,000 compounds. About 8,600 (12%) showed an effect of 50% or more. Shown is part of a subset that was picked to be rich in strong results.
EXPERIMENTAL READOUT: INHIBITION (%)
Please give a number only; it is taken to be in %.

INHIBITION reading for Cc1cnn(C2CN(CC(=O)NCCOc3ccccc3)C2)c1 : 3.15

// INHIBITION value for O=C(CN1CC(n2cccn2)C1)NCCCc1ccccc1 : 54.4

Measured INHIBITION, O=C(CN1CC(n2cccn2)C1)NCCC1=CCCCC1 : -77.3

Noted for CCN(CC)S(=O)(=O)c1cccc(C(=O)N(C)Cc2ccsc2)c1 : its INHIBITION reads -61.4

Measured INHIBITION of Cc1cnn(C2CN(CC(=O)NCCc3ccccc3)C2)c1 : 27.4

Consider CCOc1ccc2cc(C(=O)NCCNc3ccc(C)nn3)[nH]c2c1 . Its measured INHIBITION is -21.9

Record summary for O=C(CN1CC(n2cccn2)C1)NCCc1ccc(F)cc1 : reported INHIBITION = -19.4

Notebook: CN(C)C(=O)C1CCN(C2CCN(CC3CC3)CC2)CC1 , INHIBITION read as 37.5

Lookup result for CCN(C)C(=O)c1cccc(S(=O)(=O)NCCc2nc(C)cc(=O)[nH]2)c1 ; measured INHIBITION: 45.2

Query O=C(CC1CC1)N1CC[C@@H]2[C@H](CC1)N(Cc1cccnc1)CCS2(=O)=O yields INHIBITION of -35

Summary for this compound, CCc1nnc2n1CC(CNCc1nc(C)c(C)o1)CC2 (configuration not stated) : INHIBITION is -8.22

Form: compound = COC(=O)Cn1c(=O)[nH]c2cn(-c3ccccc3)c(=O)n21 ; INHIBITION = -4.56

Summary for this compound, CN1CCN(C(=O)NC2CCCC2)Cc2cccnc21 : INHIBITION is -29.3

According to the records, this compound O=C(c1ccnnc1)N1C[C@H](OCc2ccccn2)[C@H]2COC[C@H]21 displays INHIBITION of 5.67

compound O=C(c1n[nH]cc1Br)N1CCOCC1 , INHIBITION observed: 33.3

Measured INHIBITION of c1cnn([C@@H]2CN(Cc3nccs3)[C@@H]3CCCO[C@@H]32)c1 : 63.5

Lookup result for CC(C)CCC(=O)NC(C)c1nnc2n1CCCCC2 (configuration not stated) ; measured INHIBITION: 53.8

For record c1csc(CN2C[C@@H](n3cccn3)[C@H]3OCCC[C@H]32)c1 the listed INHIBITION is -2.41

Reported INHIBITION of Cc1nc(CO[C@H]2CN(C(=O)c3ccc[nH]3)[C@@H]3COC[C@H]23)cs1 : 13.1

Just so you know, measured INHIBITION for COc1ccc(Cc2noc(C3=NN(C)C(=O)CC3)n2)cc1OC came out at 53.8

// INHIBITION lookup, compound = CCOCC1CN(C(=O)c2ccncn2)Cc2cnn(CC)c21 (configuration not stated) , result: 35.7

The reported value for CCc1nsc(N2CCCN(C(=O)COc3ccccc3)CC2)n1 in terms of INHIBITION is 53.8

Note to self: INHIBITION recorded for Cc1nccn1CC1CCCN(C(=O)Cc2ccsc2)C1 (configuration not stated) was 42.5

Entry under test: c1cc(CN2CCC3(CC2)COC(COCC2CC2)C3)co1 (configuration not stated) . Its INHIBITION was -17.1

So, Cc1cc(C2CCCN2Cc2ccc(S(=O)(=O)N(C)C)o2)on1 (configuration not stated) ? Its INHIBITION was 5.9

// field: INHIBITION; key: c1cc(CN2CCC(c3ccc4c(c3)OCO4)CC2)ccn1 ; value = 12.515

INHIBITION recorded for this compound, CC(C)N(C)S(=O)(=O)N(C)Cc1ccc2c(c1)OCCO2 , is -10.1

The compound listed as Cc1cc(CNCc2c(C)n(CC(C)C)c3ccccc23)[nH]n1 shows INHIBITION equal to 27.4

Form field INHIBITION, entry O=C(c1ccc[nH]1)N1CCOCC12CCCC2 : 40.9

Lab book: INHIBITION of Cc1ccc(C(=O)N2C[C@@H]3CC[C@H]2CN(S(=O)(=O)N(C)C)C3)c(O)c1 noted as 24.7

Query CC(C)N(C)S(=O)(=O)N(C)Cc1ccc2c(c1)OCO2 yields INHIBITION of 54.3

Lookup result for O=C(CS(=O)(=O)Cc1cc(Cl)c2c(c1)OCO2)N1CCCC1 ; measured INHIBITION: 21

So, COc1ccc(-c2noc(C3=NN(C)C(=O)CC3)n2)cc1OC ? Its INHIBITION was -17.8

Entry under test: Cc1ccccc1OCC(O)CN1CCC(Cn2cccn2)CC1 (configuration not stated) . Its INHIBITION was 17.5

Quick note, INHIBITION for Cn1ccnc1N1CCN(C(=O)Cc2ccccc2)CC1 landed at 34.2

Noted for O=C(C1CCOCC1)N1CC[C@H](O)[C@@H]1Cc1cccnc1 : its INHIBITION reads 37.6

Short answer for CC(C)c1noc(CCC(=O)NC(C)c2nnc3n2CCC3)n1 (configuration not stated) : INHIBITION was 20.6

Memo: c1ccc(CCCN2CC(n3cccn3)C2)cc1 , reported INHIBITION: -5.81

Lab book: INHIBITION of Clc1ccccc1Cc1noc(CN2CCCC(CN3CCCC3)C2)n1 (configuration not stated) noted as 42.8

Notebook: Cc1[nH]ccc1C(=O)N1CCOCC12CCCC2 , INHIBITION read as 19.3

Entry CCc1nsc(N2CCCN(C(=O)c3ccc(OC)cc3)CC2)n1 — recorded INHIBITION = 33.5

Record summary for CC(C)c1noc(CCC(=O)NC(C)c2nnc3n2CCCCC3)n1 (configuration not stated) : reported INHIBITION = 11.8

Looking up CC(C)c1noc(CCCC(=O)NC(C)c2nnc3n2CCC3)n1 (configuration not stated) , I see its INHIBITION listed as 50.2

The compound listed as CCc1nsc(N2CCN(C(=O)COc3ccccc3)CC2)n1 shows INHIBITION equal to -39.2

Memo: CN(C)C(CNc1c(NCc2ccco2)c(=O)c1=O)c1ccccc1 (configuration not stated) , reported INHIBITION: 4.48

COCCc1noc(CN(C)c2nc(C)cc(C)n2)n1 has a reported INHIBITION of 47.6

GET /value?item= Cc1nc(C)n(CC2CCCN2CC(=O)NCCC#N)n1 (configuration not stated) &field=INHIBITION returns 8.38
